Biological target: TAAR1 (Mus musculus)
Construct: expressed in transfected cells; host or cells: HEK293 (ATCC # CRL-1573), stably transfected with pIRESneo2 expression plasmid; membranes prepared
Sequence (Q923Y8 whole entry): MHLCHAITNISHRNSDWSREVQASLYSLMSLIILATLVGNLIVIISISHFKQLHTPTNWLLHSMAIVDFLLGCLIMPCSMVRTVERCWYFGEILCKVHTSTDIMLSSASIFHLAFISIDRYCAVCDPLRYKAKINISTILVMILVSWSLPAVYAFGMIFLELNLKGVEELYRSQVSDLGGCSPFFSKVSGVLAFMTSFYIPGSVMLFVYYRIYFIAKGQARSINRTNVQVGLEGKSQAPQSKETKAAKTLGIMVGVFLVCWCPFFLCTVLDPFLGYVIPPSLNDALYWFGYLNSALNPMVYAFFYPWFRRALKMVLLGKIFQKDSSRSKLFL
Experiment: TAAR1 radioligand binding assay on membranes of stably transfected HEK293 cells
Details: mouse TAAR1; radioligand [3H]-rac-2-(1,2,3,4-tetrahydro-1-naphthyl)-2-imidazoline at 60 nM; 4° C., 30 minutes; read-out: Ki (μM) mouse
Measured Attribute: Ki (µM)

Reference set, count: 2
Clc1cccc2c1N(Cc1ncc[nH]1)CC2 [Example 24]: 0.0557
Cc1ccc2c(c1)N(Cc1ncc[nH]1)CC2 [Example 26]: 0.129

(I) Brc1ccc2c(c1)CCCN2Cc1ncc[nH]1 [Example 25]
(II) c1ccc(COc2cccc3c2CCCN3Cc2ncc[nH]2)cc1 [Example 38]
In terms of reported Ki, does I or II have the smaller number? The response must carry the label of the picked entry. II

The reported measurements were obtained from patent US7834044B2.
